System: Staphylococcus aureus
Assay: Compound was tested in vitro for its minimum inhibitory concentration by serial 2-fold agar dilution Muller Hinton method against Staphylococcus aureus 285
Assay type: functional
Metric name: MIC (µg/mL)
Your answer should be a plain number; it is taken to be in µg/mL.

Lookup: // lookup MIC for CO/N=C(\C(=O)NC1C(=O)N2C(C(=O)[O-])=C(CN(C)c3scc[n+]3C)CSC12)c1csc(N)n1 (centres undefined)
Found: 3.12

Lookup: Item under review: CO/N=C(\C(=O)NC1C(=O)N2C(C(=O)[O-])=C(CN(C)c3sc4c([n+]3C)CCCC4)CSC12)c1csc(N)n1 (centres undefined) . Reported MIC?
Found: 0.781

Lookup: Report MIC for C=CCO/N=C(\C(=O)NC1C(=O)N2C(C(=O)[O-])=C(CN(C)c3sc(C(=O)OCC)c(C)[n+]3C)CSC12)c1csc(N)n1 (centres undefined) please.
Found: 1.56

Lookup: # input compound: CO/N=C(\C(=O)NC1C(=O)N2C(C(=O)[O-])=C(CN(C)c3sc(C)c(C)[n+]3C)CSC12)c1csc(N)n1 (centres undefined) ; wanted: its MIC
Found: 1.56

====

Test system: Pseudomonas aeruginosa
Assay: Compound was tested in vitro for its minimum inhibitory concentration by serial 2-fold agar dilution Muller Hinton method against Pseudomonas aeruginosa 1771
Assay type: functional
Please go through the items and note down their MIC.
Give the value, in units of mg/L, as a plain number.

Lookup: So what MIC did CCO/N=C(\C(=O)NC1C(=O)N2C(C(=O)[O-])=C(CN(C)c3scc(C)[n+]3C)CSC12)c1csc(N)n1 (centres undefined) get with Pseudomonas aeruginosa?
Found: 3.12

Lookup: # value lookup — system Pseudomonas aeruginosa, readout MIC, item CO/N=C(\C(=O)N[C@@H]1C(=O)N2C(C(=O)O)=C(COC(C)=O)CS[C@H]12)c1csc(N)n1 [CEFOTAXIME]
Found: 3.12

Lookup: For the record C=CCO/N=C(\C(=O)NC1C(=O)N2C(C(=O)[O-])=C(CN(C)c3sc4c([n+]3C)CCCC4)CSC12)c1csc(N)n1 (centres undefined) , what value of MIC is listed for Pseudomonas aeruginosa?
Found: 6.25

Lookup: Give recorded MIC with Pseudomonas aeruginosa for the following molecule: CO/N=C(\C(=O)NC1C(=O)N2C(C(=O)[O-])=C(CN(C)c3sc(C)c(C)[n+]3C)CSC12)c1csc(N)n1 (centres undefined)
Found: 25

Lookup: Could you share what MIC was measured for C=CCO/N=C(\C(=O)NC1C(=O)N2C(C(=O)[O-])=C(CN(C)c3sc(C(=O)OCC)c(C)[n+]3C)CSC12)c1csc(N)n1 (centres undefined) , tested on Pseudomonas aeruginosa?
Found: 3.12

Lookup: Report MIC for CCO/N=C(\C(=O)NC1C(=O)N2C(C(=O)[O-])=C(CN(C)c3sc(C(=O)OCC)c(C)[n+]3C)CSC12)c1csc(N)n1 (centres undefined) tested on Pseudomonas aeruginosa.
Found: 25

Lookup: Notebook: pull reported MIC for Pseudomonas aeruginosa, entry CO/N=C(\C(=O)NC1C(=O)N2C(C(=O)[O-])=C(CN(C)c3sc4c([n+]3C)CCCC4)CSC12)c1csc(N)n1 (centres undefined)
Found: 6.25

Lookup: Return MIC measured with Pseudomonas aeruginosa given this molecule: CO/N=C(\C(=O)NC1C(=O)N2C(C(=O)[O-])=C(CN(C)c3sc(C(N)=O)c(C)[n+]3C)CSC12)c1csc(N)n1 (centres undefined)
Found: 6.25

Lookup: Given the entry CO/N=C(\C(=O)NC1C(=O)N2C(C(=O)[O-])=C(CN(C)c3scc[n+]3C)CSC12)c1csc(N)n1 (centres undefined) , what MIC was observed with Pseudomonas aeruginosa?
Found: 25

Lookup: Reported MIC for Pseudomonas aeruginosa, given CCO/N=C(\C(=O)NC1C(=O)N2C(C(=O)[O-])=C(CN(C)c3sc4c([n+]3C)CCCC4)CSC12)c1csc(N)n1 (centres undefined) ?
Found: 6.25

Lookup: So what MIC did CO/N=C(\C(=O)NC1C(=O)N2C(C(=O)[O-])=C(CN(C)c3scc(C)[n+]3C)CSC12)c1csc(N)n1 (centres undefined) get with Pseudomonas aeruginosa?
Found: 12.5

Lookup: I'm curious: which MIC was measured for CCOC(=O)c1sc(N(C)CC2=C(C(=O)[O-])N3C(=O)C(NC(=O)/C(=N\OC)c4csc(N)n4)C3SC2)[n+](C)c1C (centres undefined) tested on Pseudomonas aeruginosa?
Found: 25

Lookup: MIC / Pseudomonas aeruginosa / CO/N=C(\C(=O)N[C@@H]1C(=O)N2C(C(=O)[O-])=C(C[n+]3cccc4c3CCC4)CS[C@H]12)c1csc(N)n1 [CEFPIROME]
Found: 0.781

Lookup: Form field: MIC recorded for C=CCO/N=C(\C(=O)NC1C(=O)N2C(C(=O)[O-])=C(CN(C)c3scc(C)[n+]3C)CSC12)c1csc(N)n1 (centres undefined) with Pseudomonas aeruginosa (enter value)
Found: 6.25
